- target system: Peroxisome proliferator-activated receptor gamma (Homo sapiens, UniProt P37231)
- Sequence (P37231 whole entry): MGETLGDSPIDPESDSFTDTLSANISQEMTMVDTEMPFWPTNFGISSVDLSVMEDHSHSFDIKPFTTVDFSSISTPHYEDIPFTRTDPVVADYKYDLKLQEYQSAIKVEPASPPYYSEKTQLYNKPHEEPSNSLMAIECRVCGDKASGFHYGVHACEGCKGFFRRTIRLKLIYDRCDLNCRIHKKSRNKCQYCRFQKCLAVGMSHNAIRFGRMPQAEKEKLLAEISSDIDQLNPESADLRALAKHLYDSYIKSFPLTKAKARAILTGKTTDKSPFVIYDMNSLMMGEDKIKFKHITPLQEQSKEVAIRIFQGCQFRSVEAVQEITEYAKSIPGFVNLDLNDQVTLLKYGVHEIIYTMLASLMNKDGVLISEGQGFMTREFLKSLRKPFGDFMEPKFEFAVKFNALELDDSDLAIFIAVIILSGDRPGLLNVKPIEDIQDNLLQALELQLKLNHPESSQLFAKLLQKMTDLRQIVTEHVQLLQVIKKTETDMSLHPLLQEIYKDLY
Friendly reminder: EC50 below 200 nM is Fulfilled, at or above is Not fulfilled.

• Cc1oc(-c2ccccc2)nc1CCOc1cccc(CN(CCc2ccccc2)CC(=O)O)c1 = Fulfilled
• Cc1oc(-c2ccccc2)nc1CCOc1ccc(CN(CC(=O)O)Cc2cccc3ccccc23)cc1 = Not fulfilled
• Cc1oc(-c2ccccc2)nc1CCOc1ccc(CN(CC(=O)O)Cc2ccc(Oc3ccccc3)cc2)cc1 = Fulfilled
• Cc1oc(-c2ccccc2)nc1CCOc1cccc(CN(CC(=O)O)Cc2cc3ccccc3[nH]2)c1 = Not fulfilled

Input `Cc1oc(-c2ccccc2)nc1CCOc1cccc(CN(CCCc2ccccc2)CC(=O)O)c1` ; condition: EC50 strictly below 200 nM. Does it hold? Not fulfilled

Take the compound `Cc1oc(-c2ccccc2)nc1CCOc1ccc(CN(CC(=O)O)Cc2ccccn2)cc1` and say whether its EC50 is less than 200 nM. Not fulfilled

Strictly below 200 nM in EC50? `Cc1oc(-c2ccccc2)nc1CCOc1cccc(CN(CC(=O)O)Cc2ccc(Oc3ccccc3)cc2)c1` Fulfilled

Item `CCCCCCCN(CC(=O)O)Cc1ccc(OCCc2nc(-c3ccccc3)oc2C)cc1` : EC50 beneath 200 nM, strictly? Fulfilled

Please indicate whether the reported EC50 of `Cc1oc(-c2ccccc2)nc1CCOc1ccc(CN(CC(=O)O)Cc2ccc(OCc3ccccc3)cc2)cc1` is strictly below 200 nM. Not fulfilled

Regarding `CCCCCCCN(CCc1ccc(O[C@@](C)(CC)C(=O)O)cc1)C(=O)Nc1ccc(F)cc1F` , kindly confirm whether its EC50 is beneath 200 nM. Not fulfilled

Quick check: EC50 of `Cc1oc(-c2ccccc2)nc1CCOc1ccc(CN(CC(=O)O)Cc2ccc3c(c2)OCO3)cc1` under 200 nM? Not fulfilled

Lab log: compare recorded EC50 with 200 nM; is it strictly lower for `Cc1oc(-c2ccccc2)nc1CCOc1cccc(CN(CC(=O)O)Cc2ccc(OCc3ccccc3)cc2)c1` ? Not fulfilled

Lab note: confirm whether the reported EC50 for this compound is below 200 nM, equality not counting. compound: `Cc1oc(-c2ccccc2)nc1CCOc1ccc(CN(CC(=O)O)Cc2cccc(Oc3ccccc3)c2)cc1` Not fulfilled

----------
Known pIC50 of a selection of compounds
- target system: Peroxisome proliferator-activated receptor alpha (Homo sapiens, UniProt Q07869)
- Sequence (Q07869 whole entry, the tested form may be a part): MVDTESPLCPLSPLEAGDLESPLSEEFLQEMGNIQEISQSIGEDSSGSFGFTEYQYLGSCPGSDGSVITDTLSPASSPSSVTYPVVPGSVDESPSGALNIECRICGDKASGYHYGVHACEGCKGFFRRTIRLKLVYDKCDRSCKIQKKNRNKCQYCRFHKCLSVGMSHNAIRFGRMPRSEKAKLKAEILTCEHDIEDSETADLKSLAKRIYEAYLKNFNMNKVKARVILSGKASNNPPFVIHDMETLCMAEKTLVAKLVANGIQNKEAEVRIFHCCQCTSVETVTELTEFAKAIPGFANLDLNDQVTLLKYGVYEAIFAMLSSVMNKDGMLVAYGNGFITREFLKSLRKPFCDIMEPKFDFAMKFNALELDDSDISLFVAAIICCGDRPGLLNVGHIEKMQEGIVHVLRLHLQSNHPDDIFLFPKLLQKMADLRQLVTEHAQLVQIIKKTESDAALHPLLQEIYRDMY
- assay summary: Displacement of fluorescein labeled ligand from PPARalpha receptor by fluorescence polarization assay
FYI, pIC50 means -log10 of a concentration in mol per litre.

Return reported pIC50; argument: `Cc1oc(-c2ccccc2)nc1CCOc1cccc(CN(CC(=O)O)Cc2ccc(Oc3ccccc3)cc2)c1` 6.96

Requested read-out: pIC50. Entry: `Cc1oc(-c2ccccc2)nc1CCOc1ccc(CN(CCOCc2ccccc2)CC(=O)O)cc1` 5.74

Entry `Cc1oc(-c2ccccc2)nc1CCOc1cccc(CN(CCc2ccccc2)CC(=O)O)c1` has what pIC50? 7.12

Param item = `Cc1oc(-c2ccccc2)nc1CCOc1ccc(CN(CC(=O)O)Cc2cccc3ccccc23)cc1` ; retrieve measured pIC50. 6.85

Request the reported pIC50 associated with `Cc1oc(-c2ccccc2)nc1CCOc1cccc(CN(CC(=O)O)Cc2ccc(OCc3ccccc3)cc2)c1` 6.41

----------
- target system: Peroxisome proliferator-activated receptor gamma (Homo sapiens)
pEC50: −log10 of the molar value.
pEC50 vs 6: at or above is 1.0, below is 0.0.

• Cc1oc(-c2ccccc2)nc1CCOc1ccc(CN(CC(=O)O)Cc2ccc(-c3ccccc3Cl)o2)cc1 = 1.0
• Cc1oc(-c2ccccc2)nc1CCOc1ccc(CN(CC(=O)O)Cc2ccccc2)cc1 = 0.0
• Cc1oc(-c2ccccc2)nc1CCOc1cccc(CN(CC(=O)O)Cc2cccc3ccccc23)c1 = 1.0
• CCC(CC)CN(CC(=O)O)Cc1ccc(OCCc2nc(-c3ccccc3)oc2C)cc1 = 0.0
• Cc1oc(-c2ccccc2)nc1CCOc1cccc(CN(CC(=O)O)Cc2ccccc2)c1 = 1.0

Now look at this one.
Quick check, pEC50 >= 6? `Cc1oc(-c2ccccc2)nc1CCOc1cccc(CN(CC(=O)O)Cc2cccc(Oc3ccccc3)c2)c1` 1.0

----------
List of EC50 values.
- target system: Peroxisome proliferator-activated receptor alpha (Homo sapiens, UniProt Q07869)
- assay summary: Agonist activity at PPARalpha receptor expressed in HEK293 cells by GAL4 transactivation assay
Report the value in nM with no unit label.

- Cc1oc(-c2ccccc2)nc1CCOc1ccc(CN(CC(=O)O)Cc2ccc(Oc3ccccc3)cc2)cc1: 35
- Cc1oc(-c2ccccc2)nc1CCOc1cccc(CN(CC(=O)O)Cc2cccc(Oc3ccccc3)c2)c1: 62
- Cc1oc(-c2ccccc2)nc1CCOc1cccc(CN(CC(=O)O)Cc2ccc(Oc3ccccc3)cc2)c1: 30
- Cc1oc(-c2ccccc2)nc1CCOc1cccc(CN(CC(=O)O)Cc2cc3ccccc3[nH]2)c1: 197
- CCCCCCCN(CC(=O)O)Cc1ccc(OCCc2nc(-c3ccccc3)oc2C)cc1: 180

Name the reported EC50 value associated with the molecule `Cc1oc(-c2ccccc2)nc1CCOc1cccc(CN(CCCc2ccccc2)CC(=O)O)c1` 47

Quick one: EC50 of `Cc1oc(-c2ccccc2)nc1CCOc1ccc(CN(CC(=O)O)Cc2ccc3ccccc3c2)cc1` ? 618

----------
- target system: Peroxisome proliferator-activated receptor alpha (Homo sapiens) (UniProt Q07869)
- assay summary: Intrinsic activity at PPARalpha receptor expressed in HEK293 cells at 1 uM by GAL4 transactivation assay relative to GW-2331
- Format: cell-based
Measured Intrinsic activity values are reported for all entries that follow.
Provide only the numeric value, understood in %.

Look over these answered cases.
* Cc1oc(-c2ccccc2)nc1CCOc1ccc(CN(CC(=O)O)Cc2ccc3c(c2)OCO3)cc1 | 77
* Cc1oc(-c2ccccc2)nc1CCOc1ccc(CN(CC(=O)O)Cc2ccccc2)cc1 | 24
* Cc1oc(-c2ccccc2)nc1CCOc1ccc(CN(CC(=O)O)Cc2ccc(Oc3ccccc3)cc2)cc1 | 59

Intrinsic activity lookup needed for `Cc1oc(-c2ccccc2)nc1CCOc1ccc(CN(CC(=O)O)Cc2ccccn2)cc1` , thanks. 12

# input compound: `CCC(CC)CN(CC(=O)O)Cc1ccc(OCCc2nc(-c3ccccc3)oc2C)cc1` ; wanted: its Intrinsic activity 8

What value of measured Intrinsic activity is listed for `Cc1oc(-c2ccccc2)nc1CCOc1cccc(CN(CC(=O)O)Cc2cccc(Oc3ccccc3)c2)c1` ? 95

# Intrinsic activity lookup, item `Cc1oc(-c2ccccc2)nc1CCOc1ccc(CN(CC(=O)O)Cc2ccc3ccccc3c2)cc1` 39

Fill blank: measured Intrinsic activity of the compound `Cc1oc(-c2ccccc2)nc1CCOc1ccc(CN(CC(=O)O)Cc2cccc3ccccc23)cc1` is ____. 90

Consider the compound shown here: `Cc1oc(-c2ccccc2)nc1CCOc1ccc(C[C@H](Nc2ccccc2C(=O)c2ccccc2)C(=O)O)cc1` What is its recorded Intrinsic activity? 59

----------
- assay summary: Permeability from apical to basolateral side of Caco-2 cell membrane at pH 5.5
- Format: ADME, cell-based
- condition parameters: human, Caco-2, pH 5.5; read-out: permeability
quantity measured: Papp A→B (×10⁻⁶ cm/s)
Quick note: give the figure in ×10⁻⁶ cm/s, leave out the unit.

Would you mind telling me what Papp A→B value was observed for `Cc1oc(-c2ccccc2)nc1CCOc1cccc(CN(CC(=O)O)Cc2ccccc2)c1` ? 25.1

----------
- assay summary: Permeability from apical to basolateral side of Caco-2 cell membrane at pH 7.4
- Assay type: ADME, cell-based
- condition parameters: human, Caco-2, pH 7.4; read-out: permeability
quantity measured: Papp A→B (×10⁻⁶ cm/s)
Form entry: value (×10⁻⁶ cm/s) — number only.

I have this compound here, `Cc1oc(-c2ccccc2)nc1CCOc1cccc(CN(CC(=O)O)Cc2ccccc2)c1` , and I need its recorded Papp A→B. 22.5
